Test system: LOC_OS01G70970-cb002
Experiment: thermal shift delta Tm vs DMSO control; higher = stronger stabilization (binding);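 further: purified Escherichia coli-expressed rice kinase domain construct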
Conditions: 12.5 µM; protein concentration 2 µM
Measured thermal shift delta Tm values are reported for all entries that follow.

compound	result.unit	thermal shift delta Tm
COc1ccccc1-c1cc(Nc2cccc(CS(N)(=O)=O)c2)ncn1	°C	0.41
N#Cc1c(O)c2c(-c3ccc(-c4ccccc4O)cc3)csc2[nH]c1=O	°C	0.52
C[C@H]1CNC(=O)c2cnn3ccc(nc23)N[C@H](C)c2cc(F)ccc2O1	°C	0.74
CN1CCN(c2ccc(C(=O)Nc3n[nH]c4ccc(Cc5cc(F)cc(F)c5)cc34)c(NC3CCOCC3)c2)CC1 [Entrectinib (RXDX-101)]	°C	1.01
Cc1ccc(S(=O)(=O)/C=C/C#N)cc1	°C	-2.73
CN(C[C@@H]1COCCO1)S(=O)(=O)Nc1ccc2ccc3ncc(-c4cnn(C)c4)cc3c(=O)c2c1	°C	9.99
O=C(NCCCNc1nc(Nc2cccc(NC(=O)N3CCCC3)c2)ncc1I)c1cccs1	°C	8.4
Nc1ncc(-c2ccnc(Nc3ccncc3)n2)c(CC2CC2)n1	°C	0.37
c1cn2cc(-c3ccc4cn[nH]c4c3)nc(Nc3ccc(N4CCOCC4)cc3)c2n1	°C	1.17

---

Tested on: LOC_OS07G06570-cb004
Assay: thermal shift delta Tm vs DMSO control; higher = stronger stabilization (binding)
Conditions: 12.5 µM; protein concentration 2 µM
Measured thermal shift delta Tm values are reported for all entries that follow.

molecule	measured.on	result.unit	thermal shift delta Tm
FC(F)c1nc2ccccc2n1-c1nc(N2CCOCC2)nc(N2CCOCC2)n1	LOC_OS07G06570-cb004	°C	0.84
CNS(=O)(=O)C[C@H]1CC[C@H](N(C)c2[nH]cnc3nccc2-3)CC1	LOC_OS07G06570-cb004	°C	1.6
CC(C)NC(=O)COc1cccc(-c2nc(Nc3ccc4[nH]ncc4c3)c3ccccc3n2)c1	LOC_OS07G06570-cb004	°C	0.26
CCC(=O)Nc1cccc(Oc2nc(Nc3ccc(N4CCN(C)CC4)cc3OC)ncc2Cl)c1	LOC_OS07G06570-cb004	°C	0.81
COCC(=O)NC/C=C/c1ccc2ncnc(Nc3ccc(Oc4ccc(C)nc4)c(C)c3)c2c1	LOC_OS07G06570-cb004	°C	0.41
Cc1cccc(Nc2nc(NC3CCCCC3N)ncc2C(N)=O)c1 (stereo unspecified)	LOC_OS07G06570-cb004	°C	1.04
CN1CCN(Cc2ccc(NC(=O)Nc3ccc(Oc4ccnc(N)n4)cc3)cc2C(F)(F)F)CC1	LOC_OS07G06570-cb004	°C	0.91
N#CC(=C(/N)Sc1ccccc1N)/C(C#N)=C(\N)Sc1ccccc1N	LOC_OS07G06570-cb004	°C	-0.22
Cc1cnc(NC(=O)Nc2cc(Br)c(C)cc2OC[C@@H]2CNCCO2)cn1	LOC_OS07G06570-cb004	°C	0.46
CN1CCN(c2ccc3nc(-c4c(N)c5c(F)cccc5[nH]c4=O)[nH]c3c2)CC1 [Dovitinib (TKI-258) Dilactic Acid]	LOC_OS07G06570-cb004	°C	1.1
Cc1cc(C(C)Nc2ccccc2)c2nc(N3CCOCC3)cc(=O)n2c1 (stereo unspecified)	LOC_OS07G06570-cb004	°C	0.64
CCCCCCCCCC(=O)CC(O)S(=O)(=O)O (stereo unspecified) [Sodium Houttuyfonate]	LOC_OS07G06570-cb004	°C	0.7
O=C(O)c1cc(O)c2c(c1)[C@@H]([C@H]1c3cc(C(=O)O)cc(O)c3C(=O)c3c(O[C@@H]4O[C@H](CO)[C@@H](O)[C@H](O)[C@H]4O)cccc31)c1cccc(O[C@@H]3O[C@H](CO)[C@@H](O)[C@H](O)[C@H]3O)c1C2=O [Sennoside B]	LOC_OS07G06570-cb004	°C	4.56
CCN(C)S(=O)(=O)Nc1ccc(F)c(C(=O)c2c[nH]c3ncc(-c4cnc(C5CC5)nc4)cc23)c1F	LOC_OS07G06570-cb004	°C	0.34
COc1ccc([C@@H]2OC[C@H]3[C@@H]2CO[C@@H]3c2ccc(O[C@@H]3O[C@H](CO)[C@@H](O)[C@H](O)[C@H]3O)c(OC)c2)cc1OC	LOC_OS07G06570-cb004	°C	0.89
Cc1cc(Nc2ncnc3ccc(NC4=NC(C)(C)CO4)cc23)ccc1Oc1ccn2ncnc2c1	LOC_OS07G06570-cb004	°C	1.27

---

Tested on: LOC_OS06G22820-cb001
Sequence (as listed by the source): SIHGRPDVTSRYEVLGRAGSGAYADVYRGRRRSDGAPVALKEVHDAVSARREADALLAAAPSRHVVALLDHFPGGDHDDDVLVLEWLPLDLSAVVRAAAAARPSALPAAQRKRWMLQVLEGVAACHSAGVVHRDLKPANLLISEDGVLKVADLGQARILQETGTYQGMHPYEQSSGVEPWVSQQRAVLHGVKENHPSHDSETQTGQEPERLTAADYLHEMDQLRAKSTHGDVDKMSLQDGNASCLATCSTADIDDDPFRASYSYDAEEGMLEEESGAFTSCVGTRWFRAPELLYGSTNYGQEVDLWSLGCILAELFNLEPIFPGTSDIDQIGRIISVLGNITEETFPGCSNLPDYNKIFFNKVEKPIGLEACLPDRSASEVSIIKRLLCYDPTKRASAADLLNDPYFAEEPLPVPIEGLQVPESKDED
Assay: thermal shift delta Tm vs DMSO control; higher = stronger stabilization (binding)
Settings: 12.5 µM; protein concentration 2 µM
Measured thermal shift delta Tm values are reported for all entries that follow.

compound	thermal shift delta Tm [°C]
CN1CCN(c2ccc(-c3ccncc3-c3cc(F)c(O)c(F)c3)cc2)CC1	0.54
O=C1NC(=O)/C(=C/c2cccc(C(F)(F)F)c2)S1	0.44
Nc1ncnc2n[nH]c(Nc3ccc(F)cc3)c12	0.73
O=C1Nc2ccc(I)cc2/C1=C/c1cc(Br)c(O)c(Br)c1	0.94
COc1ncc(-c2cc(-c3ncc(CN4C[C@@H](C)O[C@@H](C)C4)o3)c3cn[nH]c3c2)cc1NS(C)(=O)=O	0.44
CN(C[C@@H]1COCCO1)S(=O)(=O)Nc1ccc2ccc3ncc(-c4cnn(C)c4)cc3c(=O)c2c1	0.65
Cc1cc(Nc2cc(Cl)nc(Oc3ccc([N+](=O)[O-])cc3)n2)n[nH]1	0.51
C1=N/C2=N/c3ccc(OCCN4CCCC4)c(c3)COC/C=C/COCc3cccc(c3)C(=C1)N2 [Pacritinib (SB1518)]	0.41
O=C1NC(=O)/C(=C/c2ccc3nccc(-c4ccncc4)c3c2)S1	0.22

---

Test system: LOC_OS06G16330-cb003
Sequence (as listed by the source): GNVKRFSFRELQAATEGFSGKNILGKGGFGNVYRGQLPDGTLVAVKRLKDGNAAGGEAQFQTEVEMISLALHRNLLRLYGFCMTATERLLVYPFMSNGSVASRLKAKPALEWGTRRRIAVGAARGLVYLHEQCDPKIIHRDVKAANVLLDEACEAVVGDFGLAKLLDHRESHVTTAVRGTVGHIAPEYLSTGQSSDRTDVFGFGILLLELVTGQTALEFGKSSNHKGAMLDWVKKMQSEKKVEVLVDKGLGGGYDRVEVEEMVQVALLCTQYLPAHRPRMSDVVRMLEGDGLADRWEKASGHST
Assay: thermal shift delta Tm vs DMSO control; higher = stronger stabilization (binding)
Conditions: 12.5 µM; protein concentration 2 µM
Structures can show the parent of a compound that is named as a salt.
Measured thermal shift delta Tm values are reported for all entries that follow.
result.type: thermal shift delta Tm

compound	measured.on	value.measured
CCn1nc(C2CCN(C(=O)CCO)CC2)nc1-c1cnc(N)c(-c2nnc(C(C)(C)C)o2)n1	LOC_OS06G16330-cb003	5.59 °C
C=CC(=O)Nc1ccc(CN2C(=O)N(c3cc(OC)cc(OC)c3)Cc3cnc(Nc4ccc(N5CCN(C)CC5)cc4)nc32)cc1	LOC_OS06G16330-cb003	2.37 °C
Cc1ccc(C(=O)Nc2cccc(C(F)(F)F)c2)cc1Nc1nc(-c2cccnc2)nc2c1cnn2C	LOC_OS06G16330-cb003	1.09 °C
CNc1nc(-c2ccc3c(N)n[nH]c3c2)cc(N2C[C@@H](C(=O)NC3CCCCC3)CC[C@H]2C)n1	LOC_OS06G16330-cb003	0.1 °C
FC(F)(F)c1ccc(Nc2nc3ccc(Oc4ccnc(-c5ncc(C(F)(F)F)[nH]5)c4)cc3[nH]2)cc1	LOC_OS06G16330-cb003	1.16 °C
Oc1c(F)cc(-c2cnccc2-c2ccc(N3CCOCC3)cc2)cc1F	LOC_OS06G16330-cb003	0.26 °C
C=CC(=O)Nc1cc(Nc2nccc(-c3c[nH]c4ccccc34)n2)c(OC)cc1N(C)CCN(C)C	LOC_OS06G16330-cb003	6.67 °C
Cc1ccc(NC(=O)c2ccc(CN3CCN(C)CC3)cc2)cc1Nc1nccc(-c2cccnc2)n1 [Imatinib Mesylate (STI571)]	LOC_OS06G16330-cb003	0.2 °C

---

Tested on: LOC_OS06G22820-cb001
Assay: thermal shift delta Tm vs DMSO control; higher = stronger stabilization (binding)
Conditions: 12.5 µM; protein concentration 2 µM
# label = TRUE if thermal shift delta Tm >= 0.6 °C else FALSE

compound	class
Cc1ccc(NC(=O)c2ccc(CN3CC[C@H](N(C)C)C3)c(C(F)(F)F)c2)cc1Nc1nccc(-c2cncnc2)n1 [Bafetinib (INNO-406)]	FALSE
Cc1[nH]nc2ccc(-c3cncc(OC[C@@H](N)Cc4ccccc4)c3)cc12	FALSE
Cc1c[nH]c2nc(Nc3ccc(N4CCN(C)CC4)c(F)c3)nc(-c3cccc(CC#N)c3)c12	FALSE
Cn1sc(=O)n(Cc2ccccc2)c1=O	TRUE
Cc1ccc(Nc2cc(N[C@@H]3CCCC[C@@H]3N)nnc2C(N)=O)nc1C	TRUE
Cc1ccc(Nc2nccc(N(C)c3ccc4c(C)n(C)nc4c3)n2)cc1S(N)(=O)=O	TRUE
Cn1cc(-c2cnn3c(N)c(Br)c([C@@H]4CCCNC4)nc23)cn1	FALSE
CS(=O)(=O)N1CCN(Cc2cc3nc(-c4cccc5[nH]ncc45)nc(N4CCOCC4)c3s2)CC1 [Pictilisib (GDC-0941)]	FALSE
CCN1/C(=C/C(C)=O)Sc2ccc(OC)cc21	FALSE
COc1cc(OC)c(C=C2C(=O)Nc3ccccc32)c(OC)c1	FALSE
COC1(c2sc3c(N4CCOCC4)nc(-c4cnc(N)nc4)nc3c2C)COC1	FALSE
CCN1C(=O)CNc2ncc(-c3ccc(-c4nc[nH]n4)nc3C)nc21	FALSE
N#C/C(=C\c1ccc(O)c(O)c1)C(=O)NCc1ccccc1 [AG-490 (Tyrphostin B42)]	TRUE
CC(=O)Nc1nc(C)c(-c2ccc(Cl)c(S(=O)(=O)NCCO)c2)s1	FALSE
CC(C)(C)Cn1c(N)nc2ccc(-c3[nH]c(C(C)(C)C)nc3-c3ccc(F)cc3)nc21	FALSE
NC(=O)c1cnc(N[C@@H]2CCCC[C@@H]2N)nc1Nc1cccc(-n2nccn2)c1	TRUE
CN1CCN(c2ccc3nc(-c4c(N)c5c(F)cccc5[nH]c4=O)[nH]c3c2)CC1 [Dovitinib (TKI-258) Dilactic Acid]	TRUE
CCOc1cn(-c2ccc(F)cc2C)nc1C(=O)Nc1ccc(Oc2ccnc3cc(OC)c(OC)cc23)c(F)c1	FALSE
O=C(NOCC1CC1)c1ccc(F)c(F)c1Nc1ccc(I)cc1Cl	TRUE
Nc1cccc(-c2cc3c(Oc4cccc(O)c4)ncnc3[nH]2)c1	TRUE
CCCCNc1ncc2c(-c3ccc(CN4CCN(C)CC4)cc3)cn([C@H]3CC[C@H](O)CC3)c2n1	FALSE
Cn1ncc(Cl)c1-c1cc(C(=O)N[C@H](CN)Cc2cccc(F)c2)sc1Cl	TRUE
C#Cc1cccc(Nc2ncnc3cc(OCCOC)c(OCCOC)cc23)c1 [Erlotinib]	FALSE
CCN(C)S(=O)(=O)Nc1ccc(F)c(C(=O)c2c[nH]c3ncc(-c4cnc(C5CC5)nc4)cc23)c1F	TRUE
Cc1cc(Nc2cc(N3CCN(C)CC3)nc(/C=C/c3ccccc3)n2)n[nH]1 [ENMD-2076 L-(+)-Tartaric acid]	TRUE
COC(=O)c1ccc2c(c1)NC(=O)/C2=C(\Nc1ccc(N(C)C(=O)CN2CCN(C)CC2)cc1)c1ccccc1 [Nintedanib (BIBF 1120)]	FALSE
C#Cc1cccc(Nc2ncnc3cc(OCCOC)c(OCCO)cc23)c1	FALSE
COc1cc(Nc2ncc(F)c(Nc3ccc4c(n3)N(COP(=O)(O)O)C(=O)C(C)(C)O4)n2)cc(OC)c1OC [R788 (Fostamatinib) Disodium]	TRUE
N#Cc1cccc(-c2c[nH]c3ncnc(N4CCOCC4)c23)c1	FALSE
COCCOc1ccc2c(c1)ncn2-c1ccc2cccc(N3CCC(N)CC3)c2n1	TRUE
O=C(NOCC(O)CO)c1cc(Br)c(F)c(F)c1Nc1ccc(I)cc1F (stereo unspecified)	TRUE
O=C(O[C@@H]1Cc2c(O)cc(O)cc2O[C@@H]1c1cc(O)c(O)c(O)c1)c1cc(O)c(O)c(O)c1 [(-)-Epigallocatechin Gallate]	TRUE
CCOc1cc(C(=O)N2CCC(N3CCN(C)CC3)CC2)ccc1Nc1ncc2c(n1)N(C1CCCC1)c1ccccc1C(=O)N2C	FALSE
CC(C)(C)S(=O)(=O)c1ccc2nccc(Nc3n[nH]c4ccc(F)cc34)c2c1	FALSE
Cn1c2ccccc2c2c3c(c4c5ccccc5n(CCC#N)c4c21)CNC3=O	TRUE
